Entries and their viability, T/C values follow.
Tested on: K98450-129-R-PDC complex spheroid growth, percent test/control
procedure.text: Anticancer human tumor K98450-129-R-PDC patient-derived colon adenocarcinoma cell line growth inhibition [RAS]
cond: second compound 0.0949 µM; first compound 0.0316 µM; active compounds read low
Your answer should be a plain number; it is taken to be in %.

- molecule: "CC(C)n1nc(-c2ccc3oc(N)nc3c2)c2c(N)ncnc21 + CCn1c(-c2cc(N3CCN(C)CC3)cnc2C(C)OC)c2c3cc(ccc31)-c1csc(n1)CC(NC(=O)C1CC1C)C(=O)N1CCCC(N1)C(=O)OCC(C)(C)C2"
  assayed.system: "K98450-129-R-PDC complex spheroid growth, percent test/control"
  meas.value: 14.6

Here is another molecule to look at.
In plain terms, CCC(CC)c1cc(NC2CCC(N)C2)n2nccc2n1 (configuration not stated) + CCn1c(-c2cccnc2C(C)OC)c2c3cc(ccc31)N1CCOC(CC(NC(=O)C(C(C)C)N(C)C(=O)C3(F)CCN(C(=O)C#CC(C)(C)N(C)C)CC3)C(=O)N3CCCC(N3)C(=O)OCC(C)(C)C2)C1 has a documented viability, T/C of 29.9

====

Tested on: K98450-129-R-PDC complex spheroid growth, percent test/control
procedure.text: Anticancer human tumor K98450-129-R-PDC cell line growth inhibition [RAS]; active = viability on the fitted dose curve at most 10% of control; inactive = the rest
cond: second compound 0.3 µM; first compound 10 µM
Select the correct class. Options are 1.0 for active, 0.0 for inactive and nothing else.

- compound: "CCC(CC)c1cc(NC2CCC(N)C2)n2nccc2n1 (configuration not stated) + CCn1c(-c2cccnc2C(C)OC)c2c3cc(ccc31)N1CCOC(CC(NC(=O)C(C(C)C)N(C)C(=O)C3(F)CCN(C(=O)C#CC(C)(C)N(C)C)CC3)C(=O)N3CCCC(N3)C(=O)OCC(C)(C)C2)C1"
  cat: 1.0

Ask | How was CC(Nc1ccc2c(c1)OCCn1cc(N3C(=O)OCC3C(F)F)nc1-2)C(N)=O (configuration not stated) + CCn1c(-c2cc(N3CCN(C)CC3)cnc2C(C)OC)c2c3cc(ccc31)-c1csc(n1)CC(NC(=O)C1CC1C)C(=O)N1CCCC(N1)C(=O)OCC(C)(C)C2 classified in this test?
Reply | 1.0

Ask | How was NC1c2ccccc2OC12CCN(c1cnc3c(N4CCCc5ncccc54)n[nH]c3n1)CC2 (configuration not stated) + CCn1c(-c2cccnc2C(C)OC)c2c3cc(ccc31)N1CCOC(CC(NC(=O)C(C(C)C)N(C)C(=O)C3(F)CCN(C(=O)C#CC(C)(C)N(C)C)CC3)C(=O)N3CCCC(N3)C(=O)OCC(C)(C)C2)C1 classified in this test?
Reply | 1.0

====

Tested on: K98450-129-R-PDC complex spheroid growth, percent test/control
procedure.text: Anticancer human tumor K98450-129-R-PDC cell line growth inhibition [RAS];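 note: luminescence used as a proxy for viable cell amount; spheroids exposed to agents for seven days before the viability readout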
cond: second compound 0.003 µM; first compound 0.0316 µM; active compounds read low
observed.property: viability, T/C (%)
Your answer should be a plain number; it is taken to be in %.

- compound: "CC(Nc1ccc2c(c1)OCCn1cc(N3C(=O)OCC3C(F)F)nc1-2)C(N)=O (configuration not stated) + CCn1c(-c2cc(N3CCN(C)CC3)cnc2C(C)OC)c2c3cc(ccc31)-c1csc(n1)CC(NC(=O)C1CC1C)C(=O)N1CCCC(N1)C(=O)OCC(C)(C)C2"
  observed.property: "viability, T/C"
  meas.value: 84

Here is another compound to look at.
In plain terms, CC(C)n1nc(-c2ccc3oc(N)nc3c2)c2c(N)ncnc21 + CCn1c(-c2cccnc2C(C)OC)c2c3cc(ccc31)N1CCOC(CC(NC(=O)C(C(C)C)N(C)C(=O)C3(F)CCN(C(=O)C#CC(C)(C)N(C)C)CC3)C(=O)N3CCCC(N3)C(=O)OCC(C)(C)C2)C1 has a documented viability, T/C of 40.6

====

System: K98450-129-R-PDC complex spheroid growth, percent test/control
procedure.text: Anticancer human tumor K98450-129-R-PDC cell line growth inhibition [RAS];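 note: luminescence used as a proxy for viable cell amount; spheroids exposed to agents for seven days before the viability readout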
cond: second compound 0.000949 µM; first compound 0.1 µM; active compounds read low
observed.property: viability, T/C

Below are worked cases with known answers.
- molecule: "NC1c2ccccc2OC12CCN(c1cnc3c(N4CCCc5ncccc54)n[nH]c3n1)CC2 (centres undefined) + CCn1c(-c2cccnc2C(C)OC)c2c3cc(ccc31)N1CCOC(CC(NC(=O)C(C(C)C)N(C)C(=O)C3(F)CCN(C(=O)C#CC(C)(C)N(C)C)CC3)C(=O)N3CCCC(N3)C(=O)OCC(C)(C)C2)C1"
  viability, T/C: "23.5%"
- molecule: "CC(C)NCC(C(=O)N1CCN(c2ncnc3c2C(C)CC3O)CC1)c1ccc(Cl)cc1 (centres undefined) + CCn1c(-c2cccnc2C(C)OC)c2c3cc(ccc31)N1CCOC(CC(NC(=O)C(C(C)C)N(C)C(=O)C3(F)CCN(C(=O)C#CC(C)(C)N(C)C)CC3)C(=O)N3CCCC(N3)C(=O)OCC(C)(C)C2)C1"
  viability, T/C: "61.4%"
- molecule: "CC(C)NCC(C(=O)N1CCN(c2ncnc3c2C(C)CC3O)CC1)c1ccc(Cl)cc1 (centres undefined) + CCn1c(-c2cc(N3CCN(C)CC3)cnc2C(C)OC)c2c3cc(ccc31)-c1csc(n1)CC(NC(=O)C1CC1C)C(=O)N1CCCC(N1)C(=O)OCC(C)(C)C2"
  viability, T/C: "93.3%"

Here is another molecule to look at.
In plain terms, CC(C)n1nc(-c2ccc3oc(N)nc3c2)c2c(N)ncnc21 + CCn1c(-c2cccnc2C(C)OC)c2c3cc(ccc31)N1CCOC(CC(NC(=O)C(C(C)C)N(C)C(=O)C3(F)CCN(C(=O)C#CC(C)(C)N(C)C)CC3)C(=O)N3CCCC(N3)C(=O)OCC(C)(C)C2)C1 has a documented viability, T/C of 41.8%

====

Test system: K98450-129-R-PDC complex spheroid growth, percent test/control
procedure.text: Anticancer human tumor K98450-129-R-PDC cell line growth inhibition [RAS];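 note: luminescence used as a proxy for viable cell amount; spheroids exposed to agents for seven days before the viability readout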
cond: second compound 0.003 µM; first compound 0.316 µM; active compounds read low
Text: RAS pathway inhibitors in Combinations in Complex Spheroids A high-throughput screen of multi-cell type tumor spheroids was designed to identify active combinations of RAS pathway inhibitors and targeted small molecules. Complex spheroids include a stromal component modeled by human endothelial cells (HUVEC) and fibroblasts modeled by human mesenchymal stem cells (MSCs). […] Compounds. […] If the clinical Cmax for an agent had not been determined, the highest concentration tested was 10 microM. […]
observed.property: viability, T/C (%)
Your answer should be a plain number; it is taken to be in %.

In plain terms, CC(Nc1ccc2c(c1)OCCn1cc(N3C(=O)OCC3C(F)F)nc1-2)C(N)=O (stereo not drawn) + CCn1c(-c2cc(N3CCN(C)CC3)cnc2C(C)OC)c2c3cc(ccc31)-c1csc(n1)CC(NC(=O)C1CC1C)C(=O)N1CCCC(N1)C(=O)OCC(C)(C)C2 has a documented viability, T/C of 75.2

In plain terms, C=CC(=O)Nc1cc(Nc2nccc(-c3cn(C)c4ccccc34)n2)c(OC)cc1N(C)CCN(C)C + CCn1c(-c2cc(N3CCN(C)CC3)cnc2C(C)OC)c2c3cc(ccc31)-c1csc(n1)CC(NC(=O)C1CC1C)C(=O)N1CCCC(N1)C(=O)OCC(C)(C)C2 has a documented viability, T/C of 41.8

In plain terms, CCN1CCN(Cc2ccc(Nc3ncc(F)c(-c4cc(F)c5nc(C)n(C(C)C)c5c4)n3)nc2)CC1 + CCn1c(-c2cc(N3CCN(C)CC3)cnc2C(C)OC)c2c3cc(ccc31)-c1csc(n1)CC(NC(=O)C1CC1C)C(=O)N1CCCC(N1)C(=O)OCC(C)(C)C2 has a documented viability, T/C of 54.1

====

System: K98450-129-R-PDC complex spheroid growth, percent test/control
procedure.text: Anticancer human tumor K98450-129-R-PDC cell line growth inhibition [RAS];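 note: luminescence used as a proxy for viable cell amount; spheroids exposed to agents for seven days before the viability readout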
cond: second compound 0.0949 µM; first compound 0.0316 µM; active compounds read low
Entries and their viability, T/C values follow.

Below are worked cases with known answers.
- molecule: "CCN1CCN(Cc2ccc(Nc3ncc(F)c(-c4cc(F)c5nc(C)n(C(C)C)c5c4)n3)nc2)CC1 + CCn1c(-c2cccnc2C(C)OC)c2c3cc(ccc31)N1CCOC(CC(NC(=O)C(C(C)C)N(C)C(=O)C3(F)CCN(C(=O)C#CC(C)(C)N(C)C)CC3)C(=O)N3CCCC(N3)C(=O)OCC(C)(C)C2)C1"
  viability, T/C: "34.5%"
- molecule: "CC(C)n1nc(-c2ccc3oc(N)nc3c2)c2c(N)ncnc21 + CCn1c(-c2cccnc2C(C)OC)c2c3cc(ccc31)N1CCOC(CC(NC(=O)C(C(C)C)N(C)C(=O)C3(F)CCN(C(=O)C#CC(C)(C)N(C)C)CC3)C(=O)N3CCCC(N3)C(=O)OCC(C)(C)C2)C1"
  viability, T/C: "30.6%"

In plain terms, NC1c2ccccc2OC12CCN(c1cnc3c(N4CCCc5ncccc54)n[nH]c3n1)CC2 (centres undefined) + CCn1c(-c2cccnc2C(C)OC)c2c3cc(ccc31)N1CCOC(CC(NC(=O)C(C(C)C)N(C)C(=O)C3(F)CCN(C(=O)C#CC(C)(C)N(C)C)CC3)C(=O)N3CCCC(N3)C(=O)OCC(C)(C)C2)C1 has a documented viability, T/C of 11%

In plain terms, CC(=O)OC12COC1CC(O)C1(C)C(=O)C(O)C3=C(C)C(OC(=O)C(O)C(NC(=O)OC(C)(C)C)c4ccccc4)CC(O)(C(OC(=O)c4ccccc4)C21)C3(C)C (centres undefined) + CCn1c(-c2cccnc2C(C)OC)c2c3cc(ccc31)N1CCOC(CC(NC(=O)C(C(C)C)N(C)C(=O)C3(F)CCN(C(=O)C#CC(C)(C)N(C)C)CC3)C(=O)N3CCCC(N3)C(=O)OCC(C)(C)C2)C1 has a documented viability, T/C of 29.6%
